assay: modulators of HCV replicon luciferase signal, primary screen, HCV replication inhibitor project, Huh7 cells, luciferase reporter (AID 1109); conditions: 48 h, higher = more signal;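 note: huh7 hepatoma cells harbouring a luciferase neomycin HCV replicon reporter; luciferase luminescence as measure of HCV replicon replication; test concentration not given here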
Each record here notes measured z-score.
Value kind: z-score

| Smiles text | Measured |
| --- | --- |
| NC(=O)NCC#Cc1ccc2c(c1)[C@]1(C(=O)N2)[C@H](c2ccc(O)cc2)N2[C@H](c3ccccc3)[C@H](c3ccccc3)OC(=O)[C@H]2[C@@H]1C(=O)Nc1nc2ccccc2s1 | -1.27 |
| COc1ccc(CCNC(=O)[C@@]2(Sc3ccc(C)cc3)CC(=O)N(Cc3cc(C(F)(F)F)cc(C(F)(F)F)c3)[C@@H]2c2ccc(CO)cc2I)cc1 | -1.89 |
| C=C(C(=O)CC[C@H](OC(C)=O)c1cccc(OCCO)c1)C(C)C | -1.01 |
| CN(C)CCCCNC(=O)[C@H]1C[C@H]2C(=O)N[C@@H](CCCCN(C)C)C(=O)N2[C@H]1c1cccc(OCCO)c1 | 0.057 |
| O=C1O[C@@H](c2ccccc2)[C@@H](c2ccccc2)N2[C@@H](c3ccccc3OCCO)[C@]3(C(=O)Nc4ccccc43)[C@@H](C(=O)NC[C@H](O)c3ccccc3)[C@H]12 | -3.3 |
| COC(=O)[C@]1(CCS(=O)(=O)c2ccccc2)N=C(c2ccc(OCCCO)cc2)O[C@@H]1c1ccccc1CN=[N+]=[N-] | -2.98 |
| CO[C@H]1O[C@H](CO)[C@@H](OC(=O)c2ccc(Br)cc2)[C@@H]2OC(=O)[C@@H](Cc3ccc4ccccc4c3)C/C=C/C[C@H](Cc3ccc4ccccc4c3)C(=O)O[C@@H]12 | -1.13 |

Data credit: PubChem BioAssay
